assay: Cmax was determine after peroral administration at 50 mpk in Rat; format: ADME, organism-based; design: dose 50 mpk, route oral; settings: in vivo, po, 50 mg/kg
MEASUREMENT NAME: Cmax

Enquiry: Recorded Cmax of COc1cncc(-c2cnc(C(C)(C)N3CCN(C[C@@H](O)C[C@@H](Cc4ccccc4)C(=O)N[C@H]4c5ccccc5OC[C@H]4O)[C@H](C(=O)NCC(F)(F)F)C3)o2)c1 , please.
Return: 3.06 µM

* * *

assay: Cmax was determine after peroral administration at 20 mpk in Rat; assay type: ADME, organism-based; set-up: dose 20 mpk, route oral; conditions: in vivo, po, 20 mg/kg
MEASUREMENT NAME: Cmax

Enquiry: Entry COc1cncc(-c2cnc(C(C)(C)N3CCN(C[C@@H](O)C[C@@H](Cc4ccccc4)C(=O)N[C@H]4c5ccccc5OC[C@H]4O)[C@H](C(=O)NCC(F)(F)F)C3)o2)c1 has what Cmax?
Return: 370 nM

* * *

test: Area under curve was determine after peroral administration at 50 mpk in Rat; type: ADME, organism-based; settings: in vivo, po, 50 mg/kg
MEASUREMENT NAME: AUC (µM·h)
Kindly answer with a numeric value in µM·h, unit omitted.

Enquiry: // lookup AUC for COc1cncc(-c2cnc(C(C)(C)N3CCN(C[C@@H](O)C[C@@H](Cc4ccccc4)C(=O)N[C@H]4c5ccccc5OC[C@H]4O)[C@H](C(=O)NCC(F)(F)F)C3)o2)c1
Return: 4.02

* * *

test: Half life period was determine after peroral administration at 10 mpk in dog; type: ADME, organism-based, Canis lupus familiaris; conditions: in vivo, po, 10 mg/kg
We begin with a simple list: items and their reported half-life.
State just the number; it will be interpreted in h.

Below are worked cases with known answers.
> print(dat)
                         chemical.structure  measurement.name  recorded.value
1  COc1cncc(-c2cnc(C(C)(C)N3CCN(C[C@@H](O)C[C@@H](Cc4ccccc4)C(=O)N[C@H]4c5ccccc5OC[C@H]4O)[C@H](C(=O)NCC(F)(F)F)C3)o2)c1         half-life            1.02
2  CC(C)(c1ncc(-c2cnccc2Cl)o1)N1CCN(C[C@@H](O)C[C@@H](Cc2ccccc2)C(=O)N[C@H]2c3ccccc3OC[C@H]2O)[C@H](C(=O)NCC(F)(F)F)C1         half-life            1.53

Now consider a different compound.
Enquiry: Tell me the measured half-life of CC(C)(c1ncc(-c2cccnc2)o1)N1CCN(C[C@@H](O)C[C@@H](Cc2ccccc2)C(=O)N[C@H]2c3ccccc3OC[C@H]2O)[C@H](C(=O)NCC(F)(F)F)C1 , please.
Return: 1.57

* * *

CLint scaled values by entry
test: In vitro intrinsic clearance in human liver microsome; format: ADME; details: liver microsomes
Please give a number only; it is taken to be in mL/min/kg.

Enquiry: Name the reported CLint scaled value associated with the molecule CC(C)(c1ncc(-c2cnccc2Cl)o1)N1CCN(C[C@@H](O)C[C@@H](Cc2ccccc2)C(=O)N[C@H]2c3ccccc3OC[C@H]2O)[C@H](C(=O)NCC(F)(F)F)C1
Return: 35

* * *

This section presents molecules with their documented IC50 values.
target: Cytochrome P450 2D6 (Homo sapiens, UniProt P10635)
Sequence (P10635 whole entry): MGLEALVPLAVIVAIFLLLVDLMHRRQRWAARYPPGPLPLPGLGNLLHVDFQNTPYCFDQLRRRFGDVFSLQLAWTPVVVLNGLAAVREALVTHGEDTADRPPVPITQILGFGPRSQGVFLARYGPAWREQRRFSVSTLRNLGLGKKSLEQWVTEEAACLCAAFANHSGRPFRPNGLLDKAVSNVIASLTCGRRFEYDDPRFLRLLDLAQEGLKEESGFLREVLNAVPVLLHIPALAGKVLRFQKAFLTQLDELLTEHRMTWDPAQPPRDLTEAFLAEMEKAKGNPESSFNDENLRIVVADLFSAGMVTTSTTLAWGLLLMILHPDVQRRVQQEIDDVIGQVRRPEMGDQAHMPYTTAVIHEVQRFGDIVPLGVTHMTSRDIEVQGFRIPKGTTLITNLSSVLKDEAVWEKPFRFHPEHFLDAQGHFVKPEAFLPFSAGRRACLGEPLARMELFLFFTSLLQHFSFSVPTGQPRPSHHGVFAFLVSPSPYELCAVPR

A selection of reference data follows.
> print(dat)
                         chemical.structure                       experimental.target  recorded.value
1  CC(C)(c1ncc(-c2cnccc2Cl)o1)N1CCN(C[C@@H](O)C[C@@H](Cc2ccccc2)C(=O)N[C@H]2c3ccccc3OC[C@H]2O)[C@H](C(=O)NCC(F)(F)F)C1  Cytochrome P450 2D6 (Homo sapiens, UniProt P10635)         4.17 µM
2  COc1cncc(-c2cnc(C(C)(C)N3CCN(C[C@@H](O)C[C@@H](Cc4ccccc4)C(=O)N[C@H]4c5ccccc5OC[C@H]4O)[C@H](C(=O)NCC(F)(F)F)C3)o2)c1  Cytochrome P450 2D6 (Homo sapiens, UniProt P10635)          8.7 µM
3  CC(C)(c1ncc(-c2cccnc2)o1)N1CCN(C[C@@H](O)C[C@@H](Cc2ccccc2)C(=O)N[C@H]2c3ccccc3OC[C@H]2O)[C@H](C(=O)NCC(F)(F)F)C1  Cytochrome P450 2D6 (Homo sapiens, UniProt P10635)         10.5 µM

Next up:
Enquiry: What measured IC50 is associated with CC(C)(c1ncc(-c2ccccn2)o1)N1CCN(C[C@@H](O)C[C@@H](Cc2ccccc2)C(=O)N[C@H]2c3ccccc3OC[C@H]2O)[C@H](C(=O)NCC(F)(F)F)C1 on Cytochrome P450 2D6 (Homo sapiens, UniProt P10635)?
Return: 22.2 µM

* * *

assay: Plasma clearance after peroral administration at 10 mpk in dog; format: ADME, organism-based, Canis lupus familiaris; settings: po, 10 mg/kg, read-out: Clp
MEASUREMENT NAME: CL/F

Example entries begin here.
> print(dat)
                         chemical.structure  measurement.name  recorded.value
1  CC(C)(c1ncc(-c2cnccc2Cl)o1)N1CCN(C[C@@H](O)C[C@@H](Cc2ccccc2)C(=O)N[C@H]2c3ccccc3OC[C@H]2O)[C@H](C(=O)NCC(F)(F)F)C1              CL/F    19 mL/min/kg
2  CC(C)(c1ncc(-c2cccnc2)o1)N1CCN(C[C@@H](O)C[C@@H](Cc2ccccc2)C(=O)N[C@H]2c3ccccc3OC[C@H]2O)[C@H](C(=O)NCC(F)(F)F)C1              CL/F    21 mL/min/kg

Turning now to a further record.
Enquiry: Please report the recorded CL/F for COc1cncc(-c2cnc(C(C)(C)N3CCN(C[C@@H](O)C[C@@H](Cc4ccccc4)C(=O)N[C@H]4c5ccccc5OC[C@H]4O)[C@H](C(=O)NCC(F)(F)F)C3)o2)c1 .
Return: 18 mL/min/kg

* * *

assay: Oral bioavailability after peroral administration at 50 mpk in Rat; format: ADME, organism-based; settings: in vivo, 50 mg/kg
MEASUREMENT NAME: bioavailability
The reply should consist of the numeric value with the unit placed after it.

Enquiry: # get_value(readout='bioavailability', item= COc1cncc(-c2cnc(C(C)(C)N3CCN(C[C@@H](O)C[C@@H](Cc4ccccc4)C(=O)N[C@H]4c5ccccc5OC[C@H]4O)[C@H](C(=O)NCC(F)(F)F)C3)o2)c1 )
Return: 40.5%

* * *

assay: Oral bioavailability after peroral administration at 160 mpk in Rat; type: ADME, organism-based; settings: in vivo, 160 mg/kg
MEASUREMENT NAME: bioavailability
Number first, unit second.

Enquiry: // lookup bioavailability for COc1cncc(-c2cnc(C(C)(C)N3CCN(C[C@@H](O)C[C@@H](Cc4ccccc4)C(=O)N[C@H]4c5ccccc5OC[C@H]4O)[C@H](C(=O)NCC(F)(F)F)C3)o2)c1
Return: 47.2%

* * *

assay: Area under curve was determine after peroral administration at 160 mpk in Rat; assay type: ADME, organism-based; conditions: in vivo, po, 160 mg/kg
MEASUREMENT NAME: AUC (µM·h)
I only need the number, in µM·h, no unit after it.

Enquiry: For the compound COc1cncc(-c2cnc(C(C)(C)N3CCN(C[C@@H](O)C[C@@H](Cc4ccccc4)C(=O)N[C@H]4c5ccccc5OC[C@H]4O)[C@H](C(=O)NCC(F)(F)F)C3)o2)c1 , what AUC is on record?
Return: 15.7

* * *

assay: Cmax was determine after peroral administration at 160 mpk in Rat; format: ADME, organism-based; set-up: dose 160 mpk, route oral; conditions: in vivo, po, 160 mg/kg
MEASUREMENT NAME: Cmax (µM)
Provide only the numeric value, understood in µM.

Enquiry: Item COc1cncc(-c2cnc(C(C)(C)N3CCN(C[C@@H](O)C[C@@H](Cc4ccccc4)C(=O)N[C@H]4c5ccccc5OC[C@H]4O)[C@H](C(=O)NCC(F)(F)F)C3)o2)c1 has what recorded Cmax?
Return: 6.88

* * *

Reported Cmax is given for each of the following compounds.
assay: Cmax was determine after peroral administration at 10 mpk in dog; assay type: ADME, organism-based, Canis lupus familiaris; design: dose 10 mpk, route oral; conditions: in vivo, po, 10 mg/kg
Give the number; µM is assumed, so skip it.

Enquiry: Endpoint output: Cmax of CC(C)(c1ncc(-c2cnccc2Cl)o1)N1CCN(C[C@@H](O)C[C@@H](Cc2ccccc2)C(=O)N[C@H]2c3ccccc3OC[C@H]2O)[C@H](C(=O)NCC(F)(F)F)C1 . Value?
Return: 1

Enquiry: // lookup Cmax for CC(C)(c1ncc(-c2cccnc2)o1)N1CCN(C[C@@H](O)C[C@@H](Cc2ccccc2)C(=O)N[C@H]2c3ccccc3OC[C@H]2O)[C@H](C(=O)NCC(F)(F)F)C1
Return: 3.8

Enquiry: I'd like to know its Cmax. The compound in question is COc1cncc(-c2cnc(C(C)(C)N3CCN(C[C@@H](O)C[C@@H](Cc4ccccc4)C(=O)N[C@H]4c5ccccc5OC[C@H]4O)[C@H](C(=O)NCC(F)(F)F)C3)o2)c1
Return: 4.3
